B1: Transcription elongation factor A N-terminal and central domain-containing protein, residues 30 to 77; numbered along this chain, Q8N8B7 (parent)
chain: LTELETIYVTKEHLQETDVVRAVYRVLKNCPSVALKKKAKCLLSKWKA

variants of: B1; test: abundance fitness (aPCA) (normalised: wild type 0, dead -1); higher = more abundant; growth selection in yeast, the domain comes from the species named; details: Homo sapiens
Lab note: class by abundance fitness, see one: < -0.4; two: ≥ -0.4 and < -0.08; three: ≥ -0.08

>>> cat("LTELETIYVTKEHLQETDTVRAVYRVLKNCPSVALKKKAKCLLSKWKA [V19T]")
"two"
>>> cat("LTELETIYVTKEHLQETDVVRAVYRVLKNCPSVALKKRAKCLLSKWKA [K38R]")
"three"
>>> cat("LTELETIYVTKEHLQETDVVRAVYRKLKNCPSVALKKKAKCLLSKWKA [V26K]")
"two"
>>> cat("LTELETIYVTKEHLQETDVVRAVYRVLKNCPSVALKKKAKCLFSKWKA [L43F]")
"three"
>>> cat("LTELETIYVTKEHLQETDVVRAVYRVLKNCPSVALKKKAKCLLSKLKA [W46L]")
"three"
>>> cat("LTELETIYVTKEHLQETDVVRAVYCVLKNCPSVALKKKAKCLLSKWKA [R25C]")
"one"
>>> cat("LTELETIYVQKEHLQETDVVRAVYRVLKNCPSVALKKKAKCLLSKWKA [T10Q]")
"three"
>>> cat("LTELEFIYVTKEHLQETDVVRAVYRVLKNCPSVALKKKAKCLLSKWKA [T6F]")
"two"
>>> cat("LTYLETIYVTKEHLQETDVVRAVYRVLKNCPSVALKKKAKCLLSKWKA [E3Y]")
"two"
>>> cat("LTELETIYVTKEHLQETDVVRAVYRVLKNCPSVALKKKAKCLLSKWVA [K47V]")
"three"
>>> cat("LTELETIYVTKEHLQETDVVRAVYRVLKNCPSVALKKKAKCLLSKWWA [K47W]")
"three"
>>> cat("LTELETIYVTKEHLQETDVVRAVYRVLKNCPSVALNKKAKCLLSKWKA [K36N]")
"one"
>>> cat("LTELETIYVTKEHLQETLVVRAVYRVLKNCPSVALKKKAKCLLSKWKA [D18L]")
"three"
>>> cat("LTELETIYVTKEHLLETDVVRAVYRVLKNCPSVALKKKAKCLLSKWKA [Q15L]")
"two"
>>> cat("LTELVTIYVTKEHLQETDVVRAVYRVLKNCPSVALKKKAKCLLSKWKA [E5V]")
"one"
>>> cat("LTELETIYVTKEHLQETDVVRAVYRVLKNCPSVALKKKAKCLLNKWKA [S44N]")
"two"
>>> cat("LTELETIYVTKEHLQETDVVRAVYRVFKNCPSVALKKKAKCLLSKWKA [L27F]")
"one"
>>> cat("LTELETIYVTKEHLQELDVVRAVYRVLKNCPSVALKKKAKCLLSKWKA [T17L]")
"one"
>>> cat("LTELETIYVTKEHPQETDVVRAVYRVLKNCPSVALKKKAKCLLSKWKA [L14P]")
"three"
>>> cat("LTELETIYVEKEHLQETDVVRAVYRVLKNCPSVALKKKAKCLLSKWKA [T10E]")
"two"
>>> cat("LTELETIYVTKEHLQETDVVRAVYRVLKNCPSVALKKKAKMLLSKWKA [C41M]")
"two"
>>> cat("LTELETIYVTKEHLQETDVVRAVYRVLKNCPSVALFKKAKCLLSKWKA [K36F]")
"three"
>>> cat("LTELETIYVTKEHLQETDVVRAVYRVLKNCPSVASKKKAKCLLSKWKA [L35S]")
"one"
>>> cat("LTELETIYVTKEHLQETDVVRAVYRVLKTCPSVALKKKAKCLLSKWKA [N29T]")
"three"
>>> cat("LTELETIYVTKEHLQETDVVRAHYRVLKNCPSVALKKKAKCLLSKWKA [V23H]")
"one"
>>> cat("LTELETIYVTKEHLQETDVVRAVYRVLKNCPSVMLKKKAKCLLSKWKA [A34M]")
"two"
>>> cat("LTELETIYVTKEHLQETDVVRAVYRVLKKCPSVALKKKAKCLLSKWKA [N29K]")
"three"
>>> cat("LTELETIYVTKEHLQETDVVRAVYRVLKNCPSVALKKKAKCELSKWKA [L42E]")
"one"
>>> cat("LTELETIYVAKEHLQETDVVRAVYRVLKNCPSVALKKKAKCLLSKWKA [T10A]")
"three"
>>> cat("LTELEAIYVTKEHLQETDVVRAVYRVLKNCPSVALKKKAKCLLSKWKA [T6A]")
"two"
>>> cat("LTELETIYVTKEHLQETWVVRAVYRVLKNCPSVALKKKAKCLLSKWKA [D18W]")
"three"
>>> cat("LTELETIYCTKEHLQETDVVRAVYRVLKNCPSVALKKKAKCLLSKWKA [V9C]")
"two"
>>> cat("LTELETIYVTMEHLQETDVVRAVYRVLKNCPSVALKKKAKCLLSKWKA [K11M]")
"two"
>>> cat("LTELETIYVTKEHMQETDVVRAVYRVLKNCPSVALKKKAKCLLSKWKA [L14M]")
"three"
>>> cat("LTELETIYVTYEHLQETDVVRAVYRVLKNCPSVALKKKAKCLLSKWKA [K11Y]")
"one"
>>> cat("LTELETIYVTKEHLQETDVVRAVYNVLKNCPSVALKKKAKCLLSKWKA [R25N]")
"two"
>>> cat("LTELETIYVTKEHLQETDVVRAVYRVLKNCPSVALKKKTKCLLSKWKA [A39T]")
"one"
>>> cat("LTELETIYVTKEHLQETDVVRAVYRVLKNCPSYALKKKAKCLLSKWKA [V33Y]")
"two"
>>> cat("LTEIETIYVTKEHLQETDVVRAVYRVLKNCPSVALKKKAKCLLSKWKA [L4I]")
"two"
>>> cat("LTELETIYVTKEHLQETDVVRAVYRVLKNCPSVALKKKGKCLLSKWKA [A39G]")
"one"
>>> cat("LTELETIYVTKEHLQETDVVRAVYKVLKNCPSVALKKKAKCLLSKWKA [R25K]")
"two"
>>> cat("LTELETIYVTKEHLQETDVVRAVYRVLKNCPSVALKKKAKHLLSKWKA [C41H]")
"three"
>>> cat("LTELETIYVTKKHLQETDVVRAVYRVLKNCPSVALKKKAKCLLSKWKA [E12K]")
"three"
>>> cat("LTELETIYVTKEHLQETDVVRAVYRVLKNCPSVVLKKKAKCLLSKWKA [A34V]")
"one"
>>> cat("LTELETIYVTQEHLQETDVVRAVYRVLKNCPSVALKKKAKCLLSKWKA [K11Q]")
"two"
